Ref: PubChem BioAssay (NCI)

System: KM12 colon
Test: NCI tumour cell line growth inhibition, 48 h
Listed below: GI50 values for each entry.
recorded-metric: GI50

                                   compound    result
0  C[C@@]1(c2ncncc2F)NC(=O)c2cc(-c3cn[nH]c3)ccc21  29600 nM
1  CCOC(=O)c1c(C)n(CC(C)C)c2c1cc1oc(=O)c(=O)n3cnc2c13  13600 nM
2         Oc1ccc(/C=N/Nc2nc3ccccc3s2)c(O)c1   2180 nM
3        COc1cccc(Cn2cc3c(c2)-c2oncc2CC3)c1    379 nM
4  CC(C)=CCC/C(C)=C/CC/C(=C/COP(=O)(OCc1ccc([N+](=O)[O-])o1)N(C)CCCCCl)CC=C(C)C (centres undefined)   2980 nM
5  Oc1ccc(Br)cc1/C=N/NC(=S)NC12CC3CC(CC(C3)C1)C2   1800 nM
6   Cc1c2ncccc2nc2[nH]c3ccc(OCCN(C)C)cc3c12   1930 nM
7  C#CCOc1ccc2ncnc(Nc3ccc(NC(=O)CCl)cc3)c2c1   8540 nM
8  CCN(Cc1nc2cc(C(F)(F)F)ccc2nc1-c1ccccc1)c1ccc(OC)c(OC)c1  19900 nM

====

Listed below: TGI values for each entry.
System: RPMI-8226 leukemia
Test: NCI tumour cell line growth inhibition, 48 h
recorded-metric: TGI (µM)

compound	recorded-metric	relation-sign	quantitative-readout
CC(=O)OCC1OC(n2c3c(c(-c4ccc(Cl)cc4)c(C#N)c2=S)C(=O)CC(C)(C)C3)C(OC(C)=O)C(OC(C)=O)C1OC(C)=O (stereo not given)	TGI	>	100
COc1ccc(Nc2nc(N)c(C(=O)c3ccc(OC)cc3)s2)cc1	TGI	=	0.659
Cc1cc(NC(=O)C(=O)Cc2cnc3ccccc3n2)c(S(=O)(=O)O)cc1Cl	TGI	>	100
CCCC(=O)NC(c1ccc2c(c1)OCO2)c1ccc2cccnc2c1O (stereo not given)	TGI	=	27.8
COC(C/C(=C/CO[Si](C(C)C)(C(C)C)C(C)C)C(=O)Nc1ccccc1I)OC	TGI	=	43.4
CC(=O)O[C@H]1C(=O)[C@@]2(C)[C@H]([C@H](OC(=O)c3ccc([N+](=O)[O-])cc3)[C@]3(O)C[C@H](OC(=O)[C@H](O)[C@@H](NC(=O)c4ccccc4)c4ccccc4)C(C)=C1C3(C)C)[C@]1(OC(C)=O)CO[C@@H]1C[C@@H]2O	TGI	>	25
Cc1cc(=O)[nH]c(NN2C(Cl)C(=O)C2c2cccc([N+](=O)[O-])c2)n1 (stereo not given)	TGI	=	40.3
O=C(CCC(=O)N/N=C/c1ccccc1O)N/N=C/c1ccccc1O	TGI	>	100
O=C1Nc2ccccc2[C@]12C[C@H]2c1ccccn1	TGI	>	100
Cn1cnc2c(OCC3CCCCC3)nc(N)nc21	TGI	>	100

====

Test system: M19-MEL melanoma
Assay: NCI tumour cell line growth inhibition, 48 h
recorded-metric: TGI

>>> print(df.to_string())
                                   compound  recorded_metric      result
0                      CC(=O)NCCCCCCNC(C)=O              TGI  > 10000 µM
1  CN(C)CCCSc1c2ccccc2nc2cc(NCC(=O)Nc3ccccc3-c3ccccc3NC(=O)CNc3ccc4c(SCCCN(C)C)c5ccccc5nc4c3)ccc12              TGI    > 100 µM
2  COc1ccc(/C(Cl)=C(\C=O)c2ccc(OC)c(OC)c2)cc1OC              TGI    > 100 µM
3  O=C(CCC(=O)N/N=C/c1ccccc1O)N/N=C/c1ccccc1O              TGI    > 100 µM
4  O=C1C(Cl)C(c2ccc(Cl)cc2)N1n1cnc2ccccc2c1=O (centres undefined)              TGI    > 100 µM
5  CC(=O)OC1OC2C(NC(=O)OC(C)(C)C)C1CC2(OCc1ccccc1)OCc1ccccc1 (centres undefined)              TGI   > 74.1 µM
6  CC(=O)OCC(OC(C)=O)C(OC(C)=O)C(OC(C)=O)C(=O)CNn1c(-c2ccccc2)nc2ccc(Br)cc2c1=O (centres undefined)              TGI    > 100 µM
7  CN(C)c1nc(N(C)C)n2nc(-c3ccccc3[N+](=O)[O-])nc2n1              TGI    > 100 µM
8        COc1ccc(/C=C/c2nc(=S)[nH][nH]2)cc1              TGI    > 100 µM
